Where these numbers come from: patent US20110046170A1

- assay.target: human S1P1 receptor (Homo sapiens)
- Sequence (P21453 whole entry): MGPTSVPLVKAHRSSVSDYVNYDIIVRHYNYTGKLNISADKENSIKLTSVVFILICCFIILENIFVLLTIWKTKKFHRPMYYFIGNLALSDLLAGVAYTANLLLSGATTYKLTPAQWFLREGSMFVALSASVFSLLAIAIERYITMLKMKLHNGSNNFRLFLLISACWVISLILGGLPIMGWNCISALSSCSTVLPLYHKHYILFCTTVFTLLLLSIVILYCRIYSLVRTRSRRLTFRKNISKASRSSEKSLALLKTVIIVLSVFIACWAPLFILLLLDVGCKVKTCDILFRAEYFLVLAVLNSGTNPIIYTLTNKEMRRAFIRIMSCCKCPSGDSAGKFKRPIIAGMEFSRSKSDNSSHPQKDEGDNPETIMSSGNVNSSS
- test.protocol: GTPγS assay to determine EC50 values
- Type: biochemical
- run.conditions: 35S-GTPγS binding, membrane preparations of CHO cells expressing recombinant human S1P1 receptor; agonistic activity
pEC50: −log10 of the molar value.
parameter.measured: pEC50

molecule="CCN(CC)c1nc(C)cc(-c2noc(-c3cc(C)nc(C)c3)n2)n1 [Example 177]" parameter_measured=pEC50 reported=7.96

A: Cc1cc(-c2noc(-c3cc(C)nc(NCC(C)C)n3)n2)cc(C)n1 [Example 27]
B: CCc1cc(-c2noc(-c3cc(C)nc(NC4CC4)n3)n2)cc(C)n1 [Example 116]
C: Cc1cc(-c2noc(-c3cc(C)nc(OC(C)C)n3)n2)cc(C)n1 [Example 132]
D: Cc1cc(-c2noc(-c3cnc(OC(C)C)c(C)c3)n2)nc(NC(C)C)n1 [Example 214]
# ascending order, key=pEC50 Reply with the labels, ordered as the question asks.
D, C, A, B
